Biological target: human Y4 receptor (human, UniProt P50391 1-375)
Sequence (P50391 whole entry): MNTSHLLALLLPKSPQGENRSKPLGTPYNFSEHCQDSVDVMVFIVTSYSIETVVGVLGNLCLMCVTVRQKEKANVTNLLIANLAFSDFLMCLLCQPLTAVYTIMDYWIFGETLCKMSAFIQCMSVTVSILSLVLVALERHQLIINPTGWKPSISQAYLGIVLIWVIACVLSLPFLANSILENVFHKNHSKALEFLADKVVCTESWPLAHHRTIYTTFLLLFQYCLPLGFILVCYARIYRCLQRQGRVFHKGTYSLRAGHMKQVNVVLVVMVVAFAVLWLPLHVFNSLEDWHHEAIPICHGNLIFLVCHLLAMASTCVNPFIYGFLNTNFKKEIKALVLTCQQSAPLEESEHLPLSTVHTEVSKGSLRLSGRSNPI
Assay: 125I-PP displacement
Listing of entries alongside the reported IC50.
measured-parameter: IC50 (nM)

KPLEPVYPGDNATPEELNRYYASLRRYINMLTRPRY [compound of SEQ ID NO:72 (code 6674)]; 0.076
AAPLEPVYPGDDATPQQMAQYAAELRKYINMLTRPRY [6814]; 0.22
APLEPMYPGDYATPEQMAQYETQLRRYINTLTRPRY [6803]; 0.2
YYYAPLEPVYPGDNATPEQRAQYAADLRRYINTLTRPRY [6808]; 0.15
APLEPVYPGDDATPQQMAQYAAELRRYINLLTRPRY [6812]; 0.24
APLEPFYPGDNATPEEIVKYYSALRRYINMLTRPRY [6844]; 0.19

Sourced from patent US20100279930A1
